A short record of IC50 observed with Protein-arginine deiminase type-4 (Homo sapiens) follows.
Sequence (Q9UM07 whole entry): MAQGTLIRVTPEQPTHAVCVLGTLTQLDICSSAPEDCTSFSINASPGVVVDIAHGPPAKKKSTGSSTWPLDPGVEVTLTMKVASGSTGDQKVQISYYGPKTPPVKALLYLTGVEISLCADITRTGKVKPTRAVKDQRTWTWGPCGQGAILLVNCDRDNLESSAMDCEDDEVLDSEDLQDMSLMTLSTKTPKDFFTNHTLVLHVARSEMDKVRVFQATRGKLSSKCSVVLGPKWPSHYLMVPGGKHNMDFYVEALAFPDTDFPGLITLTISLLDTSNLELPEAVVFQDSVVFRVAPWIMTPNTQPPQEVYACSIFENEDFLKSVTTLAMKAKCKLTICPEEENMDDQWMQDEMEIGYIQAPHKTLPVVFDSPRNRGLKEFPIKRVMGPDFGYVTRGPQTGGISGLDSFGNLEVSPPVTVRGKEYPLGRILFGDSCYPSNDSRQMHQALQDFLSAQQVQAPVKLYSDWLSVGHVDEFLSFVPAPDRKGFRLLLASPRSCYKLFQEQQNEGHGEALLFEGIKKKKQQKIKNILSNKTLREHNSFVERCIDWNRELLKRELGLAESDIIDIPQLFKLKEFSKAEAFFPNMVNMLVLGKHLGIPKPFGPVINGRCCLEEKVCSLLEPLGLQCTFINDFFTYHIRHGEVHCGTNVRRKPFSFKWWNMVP
endpoint.name: IC50 (nM)

structure_as_smiles=N=C(CCl)NCCC[C@H](NC(=O)c1ccc2nc[nH]c2c1)C(=O)NCc1ccccc1 target_or_test_system="Protein-arginine deiminase type-4 (Homo sapiens)" observed_result=1150

I = N=C(CCl)NCCC[C@H](NC(=O)c1cc2c([nH]c3ccccc32)c(-c2ccc(F)cc2)n1)C(=O)NCc1ccccc1
II = N=C(CCl)NCCC[C@H](NC(=O)c1ccc2nccnc2c1)C(=O)NCc1ccccc1
# input Sort I and II by IC50 descending and give the first. I would appreciate it if you answered with the label of your choice.
# output II

###

assay: Cytotoxicity against human MCF-10A cells assessed as inhibition of cell growth incubated for 48 hrs by MTT assay; type: toxicity, cell-based
We begin with a simple list: items and their reported IC50 at 48 h.
Note: unit µM is implicit; provide only the numeric part.

structure_as_smiles=N=C(CCl)NCCC[C@H](NC(=O)c1ccc2[nH]ccc2c1)C(=O)NCc1ccccc1 observed_result=63.6

# input Could you tell me which IC50 at 48 h is on file for N=C(CCl)NCCC[C@H](NC(=O)c1cc2c(cn1)[nH]c1ccccc12)C(=O)NCc1ccccc1 ?
# output 29.4

# input Entry Cc1ccc(-c2nc(C(=O)N[C@@H](CCCNC(=N)CCl)C(=O)NCc3ccccc3)cc3c2[nH]c2ccccc23)cc1 has what IC50 at 48 h?
# output 17.5

# input What value of IC50 at 48 h has been reported for the following compound? CC(C)c1ccc(-c2nc(C(=O)N[C@@H](CCCNC(=N)CCl)C(=O)NCc3ccccc3)cc3c2[nH]c2ccccc23)cc1
# output 3.52

# input Could you share which IC50 at 48 h value was measured for CC(C)(C)c1nc(C(=O)N[C@@H](CCCNC(=N)CCl)C(=O)NCc2ccccc2)cc2c1[nH]c1ccccc12 ?
# output 3.08

###

test: AUC (0 to t) in male Sprague-Dawley rat at 3.5 mg/kg, iv by LC-MS/MS analysis; format: ADME, organism-based; conditions: in vivo
endpoint.name: AUC(0-t) (µg·h/mL)

1 = N=C(CCl)NCCC[C@H](NC(=O)c1cc2c([nH]c3ccccc32)c(-c2ccccc2)n1)C(=O)NCc1ccccc1
2 = CN(C)c1ccc2cc(C(=O)N[C@@H](CCCNC(=N)CCl)C(=O)NCc3ccccc3)ccc2c1
# input Endpoint returns the identifier whose AUC(0-t) is numerically larger, either 1 or 2 . Bench note: the answer is the label of the chosen record.
# output 2
(2: 0.0149 µg·h/mL, 1: 0.00953 µg·h/mL)

###

test: Cytotoxicity against human MCF-10A cells assessed as inhibition of cell growth incubated for 48 hrs by MTT assay; type: toxicity, cell-based
endpoint.name: IC50 at 48 h (µM)
Field format: number, assumed µM, no unit text.

# input # get_value(readout='IC50 at 48 h', item= COc1ccc(-c2nc(C(=O)N[C@@H](CCCNC(=N)CCl)C(=O)NCc3ccccc3)cc3c2[nH]c2ccccc23)cc1 )
# output 6.27

# input What value of IC50 at 48 h has been recorded for this entry: CCCCCc1nc(C(=O)N[C@@H](CCCNC(=N)CCl)C(=O)NCc2ccccc2)cc2c1[nH]c1ccccc12
# output 8.01

# input # IC50 at 48 h lookup, item COc1ccc(-c2nc(C(=O)N[C@@H](CCCNC(=N)CCl)C(=O)NCc3ccccc3)cc3c2[nH]c2ccccc23)cc1OC
# output 11.1

# input Would you kindly share the measured IC50 at 48 h for N=C(CCl)NCCC[C@H](NC(=O)c1cc2c([nH]c3ccccc32)c(-c2ncc[nH]2)n1)C(=O)NCc1ccccc1 ?
# output 12.4

# input Which value of IC50 at 48 h has been reported for N=C(CCl)NCCC[C@H](NC(=O)c1c[nH]c2ccccc12)C(=O)NCc1ccccc1 in the records?
# output 120

# input Given the entry CC(C)c1nc(C(=O)N[C@@H](CCCNC(=N)CCl)C(=O)NCc2ccccc2)cc2c1[nH]c1ccccc12 , report its measured IC50 at 48 h.
# output 4.07

# input // IC50 at 48 h lookup, key: N=C(CCl)NCCC[C@H](NC(=O)c1cc2c([nH]c3ccccc32)c(C2CCCCC2)n1)C(=O)NCc1ccccc1
# output 2.76

# input Which IC50 at 48 h value belongs to Cn1c(-c2nc(C(=O)N[C@@H](CCCNC(=N)CCl)C(=O)NCc3ccccc3)cc3c2[nH]c2ccccc23)nc2ccccc21 ?
# output 5.3

Taken from ChEMBL document CHEMBL5506043.
